# Test system: U251 CNS

compound_structure: COc1ccccc1-c1cc2c3c(nc4ccccc42)C(=O)c2cccnc2-c3n1
GI50: 3.77 µM

compound_structure: O=C1C(=O)c2ccc(Br)cc2-c2cc(Br)ccc21
GI50: 1.42 µM

compound_structure: CCCC[C@@H]1NC(=O)[C@H](CCCCN)NC(=O)[C@H](CCCNC(=N)N)NC(=O)[C@H](CC(C)C)NC(=O)[C@@H](NC(=O)[C@H](Cc2cccc(Cl)c2)NC(=O)[C@@H]2CCCN2C(=O)[C@@H](NC(C)=O)C(C)C)CCSSC[C@@H](C(=O)N[C@@H](CCCCN)C(=O)N2CCC[C@H]2C(=O)N2CCC[C@H]2C(=O)N[C@@H](CCC(=O)O)C(N)=O)NC(=O)[C@H](Cc2ccccc2)NC(=O)[C@H](CO)NC(=O)[C@H](C)NC(=O)[C@@H]2CCCN2C1=O
GI50: > 50 µM

---

As shown below, each of these compounds has a reported TGI value.
# System: SR leukemia
# run_description: NCI tumour cell line growth inhibition, 48 h

compound: COC(=O)N1[C@H]2Cc3c(OC)c(C)c(OC)c(OC)c3[C@@H]1/C(=C\c1cc(OC)c(OC)c(C)c1OC)N(Cc1ccccc1)C2=O
target_entity: SR leukemia
TGI: 94.1 µM
//
compound: Cc1cccc(C)c1NC(=O)CCC(=O)NNC(=O)c1cc(O)c2ccccc2c1
target_entity: SR leukemia
TGI: > 100 µM
//
compound: CC1OCC2OC(C)OC(C3C4=C(CC(C)(C)CC4=O)OC4=C3C(=O)CC(C)(C)C4)C2O1 (stereo not drawn)
target_entity: SR leukemia
TGI: > 100 µM

---

# System: SK-MEL-2 melanoma
# run_description: NCI tumour cell line growth inhibition, 48 h
TGI: recorded values

molecule: CO/C(=N\N=C(/C)C(F)(F)F)c1ccncc1
TGI: > 100 µM
//
molecule: O=C1C(=O)c2ccc(Br)cc2-c2cc(Br)ccc21
TGI: > 100 µM
//
molecule: COc1ccc(-n2c(CCCC(=O)O)nc3c2C(=O)c2ccccc2C3=O)cc1
TGI: > 100 µM
//
molecule: C[N+]1(C)C2Cc3ccccc3C1Cc1ccccc12
TGI: > 100 µM
//
molecule: Cc1c(Cl)ccc2c1NC(=O)C2(O)CC(=O)c1ccc(Cl)cc1Cl (stereo not given)
TGI: > 50 µM

---

# System: HS 578T breast
# run_description: NCI tumour cell line growth inhibition, 48 h
measure_name: log10 TGI (log10 of the value in µM)

compound: COc1ccc2c(c1)C(=O)c1c-2c(NCCCN(C)C)nc2ccccc12
log10 TGI: 1.20
//
compound: CC1C(c2ccc(N(C)C)cc2)c2cc3c(cc2OC1N1CCCC1)OCO3 (configuration not stated)
log10 TGI: 1.89
//
compound: ClCCN(CCCl)Cc1ccc(Nc2ccnc3cc(Cl)ccc23)cc1
log10 TGI: 0.92
//
compound: CCOc1ccc(NC(=O)Nc2cc(C(C)C)ccc2C)cc1
log10 TGI: 0.85
//
compound: Cn1ncc2cc(-c3cnc(N)c(Cl)c3N3CCC4(CCNC4=O)CC3)ccc21
log10 TGI: 1.95

---

# System: CAKI-1 renal
# run_description: NCI tumour cell line growth inhibition, 48 h
Collected TGI values appear next to each entry.

compound: C1=C2SSC3=CC=C(SSc4ccc(s4)SSC4=CC=C(SSC(=C1)S2)S4)S3
TGI: > 100 µM

compound: CCOC(=O)C1(Cc2ccc(C)cc2)Cc2ccc(C)cc2C1=O (stereo not drawn)
TGI: > 100 µM

compound: N#C/C(=C\c1ccc(CP(=O)(O)O)cc1)C(N)=O
TGI: > 100 µM

compound: CN(C(=O)C1CCCCC1)c1ccccc1I(=O)=O
TGI: > 100 µM

compound: CCCCOC1CC2(c3ccc(OC)cc3)C(=O)c3ccccc3N2O1 (stereo not drawn)
TGI: > 100 µM

compound: [Cu+2].[Cu+2].[O-]c1ccccc1C=Nc1ccccc1[O-].[O-]c1ccccc1C=Nc1ccccc1[O-]
TGI: 22.8 µM

compound: COc1ccc(CNc2cc(OC)cc(OC)c2)cc1
TGI: > 100 µM

compound: CCCCN(CC)C(=O)C(=O)C1C(=O)Nc2ccccc2S1=O (stereo not drawn)
TGI: > 100 µM

compound: Nc1ccccc1C#C/C=C\C#Cc1ccc(F)cc1F
TGI: 14.7 µM

compound: Cc1ccc(S(=O)(=O)N(C)C)cc1[N+](=O)[O-]
TGI: > 100 µM

compound: C=C1CC2CC[C@@]34C[C@@H]5O[C@@H]6C(O[C@H]7CC[C@H](CC(=O)OC8[C@@H](C)C9OC%10C[C@]%11(C[C@@H]%12O[C@@]%13(C[C@@H](C)[C@@H]%12O%11)C[C@H](C)[C@@H]%11OC%12CC(C(O)CO)OC%12C[C@@H]%11O%13)OC%10CC9O[C@H]8C[C@H]8O[C@@H](CC[C@@H]1O2)C[C@@H](C)C8=C)O[C@@H]7[C@@H]6O3)C5O4 (stereo partly drawn)
TGI: > 1.48 µM

compound: O=S(=O)(O)c1ccc(NN(c2c(O)ccc3ccccc23)S(=O)(=O)O)cc1
TGI: > 100 µM

compound: O=c1c2cc([N+](=O)[O-])ccc2n2n1Cc1ccccc1CC2
TGI: > 100 µM

compound: COc1ccc(CN2C(=O)CCC/C=C\[C@H]2CI)cc1
TGI: 21.9 µM

compound: Cc1c(/C=C2\CC/C(=C\c3[nH]c(C(=O)OC(C)(C)C)c(C)c3C)C2=O)[nH]c(C(=O)OC(C)(C)C)c1C
TGI: > 100 µM

compound: CC(=O)O[C@]1(C(C)=O)CC[C@H]2[C@@H]3C[C@H](C)C4=CC(=O)C=C[C@]4(C)[C@@]3(F)[C@@H](O)C[C@@]21C
TGI: > 100 µM

compound: [N-]=N[N+]#I1OC(C(F)(F)F)(C(F)(F)F)c2ccccc21
TGI: 20.9 µM

compound: COc1cc2c(cc1O)[C@H](C)C(c1ccc(Cl)cc1)O2 (stereo partly drawn)
TGI: 49.2 µM

// data source = PubChem BioAssay (NCI)
